- ASSAY_OVERVIEW: endothelial E-selectin expression blockers – imaging, HUVEC, immunofluorescence, MLSMR starter and 10KST1 sets, primary screen (AID 487);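 also: 100% = median nuclei count of all wells on the same plate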
- CONDITION_SUMMARY: HUVEC TNFalpha-induced E-selectin immunofluorescence imaging, at 2 µM; measured here: cell number, toxicity
ENDPOINT: nuclei count (%)
State the answer as a number, implicitly in %.

# example entries with known answers
O=C(c1cccc2c1C(=O)N(Cc1cccnc1)C2)N1CCN(c2ccccc2)CC1 ... 135
COc1ccc(OC)c2[nH]c(=O)c(CCNC(=O)CC(C)C)cc12 ... 89.8
O=c1/c(=C/c2ccco2)sc2nc(-c3ccccc3Br)nn12 ... 118
O=C(NCCCn1ccnc1)c1csc2ccccc12 ... 113
CN(C)c1nc(Oc2ccc(N)cc2)nc(N(C)C)n1 ... 92

Task item: What value of nuclei count has been recorded for this entry: FC(F)Sc1nnc(-c2cccs2)n1-c1ccccc1
Reply: 122

Task item: What value of nuclei count has been recorded for this entry: CCOC(=O)C1=C(C)NC(=O)NC1c1ccc(Br)s1 (stereo not drawn)
Reply: 104

Task item: What value of nuclei count has been recorded for this entry: CCOc1ccc2c(O)csc2c1
Reply: 103
